This collection of values is drawn from patent US9718823B2.

target_of_assay: PI3K α (Homo sapiens, UniProt P42336)
Construct: purchased Millipore 14-602
Sequence (P42336 whole entry): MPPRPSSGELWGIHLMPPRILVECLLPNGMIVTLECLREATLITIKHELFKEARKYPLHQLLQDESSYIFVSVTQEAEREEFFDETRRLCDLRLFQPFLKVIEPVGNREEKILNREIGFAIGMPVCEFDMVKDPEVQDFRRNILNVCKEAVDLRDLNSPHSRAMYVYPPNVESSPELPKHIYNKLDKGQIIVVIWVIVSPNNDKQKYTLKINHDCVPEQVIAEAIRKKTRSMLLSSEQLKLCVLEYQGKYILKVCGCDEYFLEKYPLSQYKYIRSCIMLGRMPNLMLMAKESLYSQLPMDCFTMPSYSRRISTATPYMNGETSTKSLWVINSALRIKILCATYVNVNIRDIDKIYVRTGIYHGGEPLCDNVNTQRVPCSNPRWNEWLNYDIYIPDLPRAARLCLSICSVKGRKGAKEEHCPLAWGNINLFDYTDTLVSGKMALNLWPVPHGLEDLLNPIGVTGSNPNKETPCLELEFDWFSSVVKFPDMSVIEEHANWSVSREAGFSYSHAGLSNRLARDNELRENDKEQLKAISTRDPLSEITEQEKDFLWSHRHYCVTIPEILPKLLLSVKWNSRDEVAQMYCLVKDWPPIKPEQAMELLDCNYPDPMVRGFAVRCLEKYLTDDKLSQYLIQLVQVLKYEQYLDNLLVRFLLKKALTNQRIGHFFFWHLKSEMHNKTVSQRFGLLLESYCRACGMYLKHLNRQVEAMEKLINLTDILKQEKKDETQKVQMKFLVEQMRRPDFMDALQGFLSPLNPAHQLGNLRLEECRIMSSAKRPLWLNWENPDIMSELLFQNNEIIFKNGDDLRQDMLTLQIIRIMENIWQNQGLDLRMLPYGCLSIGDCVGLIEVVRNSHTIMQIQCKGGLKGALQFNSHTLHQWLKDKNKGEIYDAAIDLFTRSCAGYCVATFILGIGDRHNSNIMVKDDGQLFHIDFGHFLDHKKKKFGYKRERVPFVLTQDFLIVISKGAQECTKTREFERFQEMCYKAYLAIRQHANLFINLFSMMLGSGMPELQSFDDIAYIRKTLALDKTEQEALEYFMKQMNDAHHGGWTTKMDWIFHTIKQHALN
Sequence (P27986 whole entry partner): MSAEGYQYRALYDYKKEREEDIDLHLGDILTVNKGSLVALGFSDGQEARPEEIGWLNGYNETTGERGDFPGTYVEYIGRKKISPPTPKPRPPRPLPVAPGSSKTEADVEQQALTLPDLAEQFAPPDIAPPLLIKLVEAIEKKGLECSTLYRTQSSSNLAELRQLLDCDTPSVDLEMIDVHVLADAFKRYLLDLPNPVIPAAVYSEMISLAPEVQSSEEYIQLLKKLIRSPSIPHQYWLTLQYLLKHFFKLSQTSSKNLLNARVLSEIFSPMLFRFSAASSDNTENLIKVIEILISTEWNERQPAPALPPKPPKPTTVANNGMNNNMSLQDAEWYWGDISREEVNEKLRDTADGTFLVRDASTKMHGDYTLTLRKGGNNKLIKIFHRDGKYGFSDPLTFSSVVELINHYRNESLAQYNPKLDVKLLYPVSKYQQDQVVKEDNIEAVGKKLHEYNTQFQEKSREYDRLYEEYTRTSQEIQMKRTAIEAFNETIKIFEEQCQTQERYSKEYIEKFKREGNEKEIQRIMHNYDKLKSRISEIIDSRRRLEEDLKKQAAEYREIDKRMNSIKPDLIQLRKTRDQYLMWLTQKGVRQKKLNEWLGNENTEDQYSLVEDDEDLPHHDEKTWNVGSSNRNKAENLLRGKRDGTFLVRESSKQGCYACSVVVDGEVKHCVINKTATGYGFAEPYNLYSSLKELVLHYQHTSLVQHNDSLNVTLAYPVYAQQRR
experimental_protocol: Inhibitory activity to PI3K α, PI 3-Kinase (human) HTRF Assay kit
Type: biochemical
particulars: 10 μM; read-out: % Inhibition Rate to PI3K α
observed_property: inhibition at 10 µM (%)

Completed entries (count: 3):
c1cnc2ccc(Nc3nc(OC4CCC4)c4nc[nH]c4n3)cc2c1; 114
OCCCNc1nc(Nc2ccc3nccc(-c4ccccc4)c3c2)nc2[nH]cnc12; 66.1
CSc1ccccc1-c1ccnc2ccc(Nc3nc(NC4CC4)c4nc[nH]c4n3)cc12; 60.6

I: c1ccc(-c2ccnc3ccc(Nc4nc(OC5CCC5)c5nc[nH]c5n4)cc23)cc1
II: FC(F)(F)Cn1cnc2c(NC3CC3)nc(Nc3ccc4nccc(-c5ccccc5)c4c3)nc21
Task: Compare inhibition at 10 µM: is it lower for I or for II ? // return label of chosen record
Result: II

P: c1ccc(-c2ccnc3ccc(Nc4nc(NC5CC5)c5ncn(C6CCNCC6)c5n4)cc23)cc1
Q: Fc1ccc(-c2ccnc3ccc(Nc4nc(NC5CCC5)c5nc[nH]c5n4)cc23)cc1
Task: From the recorded data, which exceeds the other in inhibition at 10 µM: P or Q ? Pick one and reply with its label.
Result: Q
(Q: 65.9%, P: -4.35%)

* * *

target_of_assay: PI3 K γ (Homo sapiens, UniProt P48736)
Construct: purchased Biology, Medicilon
Sequence (P48736 whole entry): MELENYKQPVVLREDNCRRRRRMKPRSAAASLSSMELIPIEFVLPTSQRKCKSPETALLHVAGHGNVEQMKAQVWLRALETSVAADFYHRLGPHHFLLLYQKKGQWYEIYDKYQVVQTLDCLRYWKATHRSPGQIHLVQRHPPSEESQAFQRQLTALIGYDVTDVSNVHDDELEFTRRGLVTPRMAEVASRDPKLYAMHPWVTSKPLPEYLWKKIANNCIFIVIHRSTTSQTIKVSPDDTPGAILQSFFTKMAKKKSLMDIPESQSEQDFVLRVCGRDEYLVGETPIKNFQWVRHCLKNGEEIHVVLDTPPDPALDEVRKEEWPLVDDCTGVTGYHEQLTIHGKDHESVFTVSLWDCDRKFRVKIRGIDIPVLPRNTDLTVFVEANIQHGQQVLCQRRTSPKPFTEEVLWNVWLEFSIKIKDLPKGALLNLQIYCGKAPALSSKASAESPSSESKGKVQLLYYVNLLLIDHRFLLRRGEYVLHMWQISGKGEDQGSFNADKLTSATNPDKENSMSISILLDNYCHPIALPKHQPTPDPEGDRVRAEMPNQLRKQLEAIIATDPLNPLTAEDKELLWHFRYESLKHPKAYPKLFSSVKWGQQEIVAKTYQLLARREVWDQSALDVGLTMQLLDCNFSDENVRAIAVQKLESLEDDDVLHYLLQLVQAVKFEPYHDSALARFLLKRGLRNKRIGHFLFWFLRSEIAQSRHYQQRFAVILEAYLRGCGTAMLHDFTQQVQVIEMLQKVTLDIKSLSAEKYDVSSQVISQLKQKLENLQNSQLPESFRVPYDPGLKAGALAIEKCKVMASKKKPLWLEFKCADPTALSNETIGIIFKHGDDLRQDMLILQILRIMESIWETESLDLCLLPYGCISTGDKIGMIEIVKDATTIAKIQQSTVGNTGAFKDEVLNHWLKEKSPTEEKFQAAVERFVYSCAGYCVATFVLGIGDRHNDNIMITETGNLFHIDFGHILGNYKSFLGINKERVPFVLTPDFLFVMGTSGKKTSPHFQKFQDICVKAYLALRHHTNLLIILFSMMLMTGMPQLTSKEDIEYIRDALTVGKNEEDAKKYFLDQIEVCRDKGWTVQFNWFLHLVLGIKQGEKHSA
experimental_protocol: Inhibitory activity to PI3K γ, PI 3-Kinase (human) HTRF Assay kit
Format: biochemical
particulars: 1 μM; read-out: Inhibition rate % to PI3 K γ
observed_property: inhibition at 1 µM (%)

Some solved entries appear below for comparison.
CC(C)Oc1nc(Nc2ccc3nccc(-c4ccccc4)c3c2)nc2[nH]cnc12 [MED1007-51]; 1.16
COc1ccc(-c2ccnc3ccc(Nc4nc(NC5CC5)c5nc[nH]c5n4)cc23)cc1 [MED1007-63]; 0.96

I: COc1cccc(-c2ccnc3ccc(Nc4nc(NC5CC5)c5nc[nH]c5n4)cc23)c1 [MED1007-61]
II: FC(F)(F)Cn1cnc2c(NC3CC3)nc(Nc3ccc4nccc(-c5ccccc5)c4c3)nc21 [MED1007-65]
III: c1cnc2ccc(Nc3nc(OC4CCCC4)c4nc[nH]c4n3)cc2c1 [MED1007-35]
Task: Please list the entries, largest inhibition at 1 µM first. // format: requested-order list of labels
Result: III, II, I

P: c1cc(-c2ccc3c(c2)OCO3)c2cc(Nc3nc(NC4CC4)c4nc[nH]c4n3)ccc2n1 [MED1007-85]
Q: c1ccc(-c2ccnc3ccc(Nc4nc(NC5CC5)c5ncn(C6CCNCC6)c5n4)cc23)cc1 [MED1007-66]
Task: Given the listed records, identify the one among P and Q with higher inhibition at 1 µM. Select an item and report its label.
Result: P

P: OCCCNc1nc(Nc2ccc3nccc(-c4ccccc4)c3c2)nc2[nH]cnc12 [MED1007-73]
Q: c1cc(N2CCOCC2)c2cc(Nc3nc(NC4CC4)c4nc[nH]c4n3)ccc2n1 [MED1007-32]
Task: Of the two listed items, P and Q , which carries the larger inhibition at 1 µM figure? State your choice using its label.
Result: P
(P: 5.49%, Q: -13.7%)

* * *

target_of_assay: PI3 K γ (Homo sapiens, UniProt P48736)
Construct: purchased Biology, Medicilon
experimental_protocol: Inhibitory activity to PI3K γ, PI 3-Kinase (human) HTRF Assay kit
Type: biochemical
particulars: 10 μM; read-out: Inhibition rate % to PI3 K γ
observed_property: inhibition at 10 µM (%)

Please review the following examples before continuing.
c1cnc2ccc(Nc3nc(OC4CCC4)c4nc[nH]c4n3)cc2c1; 77
c1ccc(-c2ccnc3ccc(Nc4nc(NCC5CCCC5)c5nc[nH]c5n4)cc23)cc1; 39.9
CC(C)Oc1nc(Nc2ccc3nccc(-c4ccccc4)c3c2)nc2[nH]cnc12; 56.2
c1ccc(-c2ccnc3ccc(Nc4nc(OC5CCC5)c5nc[nH]c5n4)cc23)cc1; 105
c1cnc2ccc(Nc3nc(OC4CCCC4)c4nc[nH]c4n3)cc2c1; 53
COc1cccc(-c2ccnc3ccc(Nc4nc(NC5CCC5)c5nc[nH]c5n4)cc23)c1; 47.4

I: c1cc(N2CCNCC2)c2cc(Nc3nc(NC4CC4)c4nc[nH]c4n3)ccc2n1
II: CC(C)Oc1nc(Nc2ccc3ncccc3c2)nc2[nH]cnc12
III: CC(C)Oc1nc(Nc2ccc3nccc(N4CCNCC4)c3c2)nc2[nH]cnc12
Task: # ascending order, key=inhibition at 10 µM # output: labels, in the requested order
Result: III, I, II
(III: -0.98%, I: 20%, II: 57.3%)

A: OCCCNc1nc(Nc2ccc3nccc(-c4ccccc4)c3c2)nc2[nH]cnc12
B: COC(=O)c1cccc(-c2ccnc3ccc(Nc4nc(NC5CC5)c5nc[nH]c5n4)cc23)c1
C: COc1ccc(-c2ccnc3ccc(Nc4nc(NC5CC5)c5nc[nH]c5n4)cc23)cc1
D: COCCCNc1nc(Nc2ccc3nccc(-c4ccccc4)c3c2)nc2[nH]cnc12
Task: Falling order of inhibition at 10 µM, please. Ranked list of labels, please, in the requested order.
Result: A, C, D, B

I: COc1ccccc1-c1ccnc2ccc(Nc3nc(NC4CC4)c4nc[nH]c4n3)cc12
II: Fc1cccc(-c2ccnc3ccc(Nc4nc(NC5CC5)c5nc[nH]c5n4)cc23)c1
Task: Would you mind telling me which has the lower recorded inhibition at 10 µM between I and II ? Record your answer as the label of the chosen record.
Result: II

a: CCOc1cccc(-c2ccnc3ccc(Nc4nc(NC5CC5)c5nc[nH]c5n4)cc23)c1
b: c1ccc(-c2ccnc3ccc(Nc4nc(NC5CCC5)c5nc[nH]c5n4)cc23)cc1
c: FC(F)(F)Cn1cnc2c(NC3CC3)nc(Nc3ccc4nccc(-c5ccccc5)c4c3)nc21
d: c1ccc(Oc2nc(Nc3ccc4nccc(N5CCNCC5)c4c3)nc3[nH]cnc23)cc1
e: c1ccc(-c2ccnc3ccc(Nc4nc(NC5CC5)c5ncn(C6CCNCC6)c5n4)cc23)cc1
Task: Sort entries by inhibition at 10 µM from minimum to maximum value. To answer, arrange all of the labels according to the requested order.
Result: d, e, b, a, c

a: COc1ccc(-c2ccnc3ccc(Nc4nc(NC5CC5)c5nc[nH]c5n4)cc23)cc1OC
b: COc1cccc(-c2ccnc3ccc(Nc4nc(NC5CC5)c5nc[nH]c5n4)cc23)c1
c: c1cc(N2CCOCC2)c2cc(Nc3nc(NC4CC4)c4nc[nH]c4n3)ccc2n1
d: NCCNc1nc(Nc2ccc3nccc(-c4ccccc4)c3c2)nc2[nH]cnc12
Task: Could you please order the items by inhibition at 10 µM, going from the lowest number to the highest? Write the labels in rank order as requested.
Result: c, d, b, a
(c: 4.28%, d: 10.8%, b: 20.4%, a: 34.2%)

P: Fc1ccc(-c2ccnc3ccc(Nc4nc(NC5CCC5)c5nc[nH]c5n4)cc23)cc1
Q: CSc1ccccc1-c1ccnc2ccc(Nc3nc(NC4CC4)c4nc[nH]c4n3)cc12
Task: Parameter check: reported inhibition at 10 µM is higher for which label, P or Q ? # reply format: chosen label
Result: P

a: c1cc(-c2ccc3c(c2)OCO3)c2cc(Nc3nc(NC4CC4)c4nc[nH]c4n3)ccc2n1
b: COC(=O)c1ccc(-c2ccnc3ccc(Nc4nc(NC5CC5)c5nc[nH]c5n4)cc23)cc1
c: OCCNc1nc(Nc2ccc3nccc(-c4ccccc4)c3c2)nc2[nH]cnc12
d: COCCNc1nc(Nc2ccc3nccc(-c4ccccc4)c3c2)nc2[nH]cnc12
Task: Hey, quick one: sort these by inhibition at 10 µM, low to high? Respond with the label ranking, as requested.
Result: b, d, c, a
(b: 4.97%, d: 10.8%, c: 21.1%, a: 41.9%)

A: CSc1cccc(-c2ccnc3ccc(Nc4nc(NC5CC5)c5nc[nH]c5n4)cc23)c1
B: COC(=O)C1(Nc2nc(Nc3ccc4nccc(-c5ccccc5)c4c3)nc3[nH]cnc23)CC1
Task: Response body: label of entry with the larger inhibition at 10 µM; valid values A , B . In your reply, give the label of the chosen option.
Result: A
(A: 41.5%, B: 19.1%)

* * *

target_of_assay: PI3Kδ (Homo sapiens, UniProt O00329)
Construct: purchased Millipore 14-604
Sequence (O00329 whole entry, one chain of several): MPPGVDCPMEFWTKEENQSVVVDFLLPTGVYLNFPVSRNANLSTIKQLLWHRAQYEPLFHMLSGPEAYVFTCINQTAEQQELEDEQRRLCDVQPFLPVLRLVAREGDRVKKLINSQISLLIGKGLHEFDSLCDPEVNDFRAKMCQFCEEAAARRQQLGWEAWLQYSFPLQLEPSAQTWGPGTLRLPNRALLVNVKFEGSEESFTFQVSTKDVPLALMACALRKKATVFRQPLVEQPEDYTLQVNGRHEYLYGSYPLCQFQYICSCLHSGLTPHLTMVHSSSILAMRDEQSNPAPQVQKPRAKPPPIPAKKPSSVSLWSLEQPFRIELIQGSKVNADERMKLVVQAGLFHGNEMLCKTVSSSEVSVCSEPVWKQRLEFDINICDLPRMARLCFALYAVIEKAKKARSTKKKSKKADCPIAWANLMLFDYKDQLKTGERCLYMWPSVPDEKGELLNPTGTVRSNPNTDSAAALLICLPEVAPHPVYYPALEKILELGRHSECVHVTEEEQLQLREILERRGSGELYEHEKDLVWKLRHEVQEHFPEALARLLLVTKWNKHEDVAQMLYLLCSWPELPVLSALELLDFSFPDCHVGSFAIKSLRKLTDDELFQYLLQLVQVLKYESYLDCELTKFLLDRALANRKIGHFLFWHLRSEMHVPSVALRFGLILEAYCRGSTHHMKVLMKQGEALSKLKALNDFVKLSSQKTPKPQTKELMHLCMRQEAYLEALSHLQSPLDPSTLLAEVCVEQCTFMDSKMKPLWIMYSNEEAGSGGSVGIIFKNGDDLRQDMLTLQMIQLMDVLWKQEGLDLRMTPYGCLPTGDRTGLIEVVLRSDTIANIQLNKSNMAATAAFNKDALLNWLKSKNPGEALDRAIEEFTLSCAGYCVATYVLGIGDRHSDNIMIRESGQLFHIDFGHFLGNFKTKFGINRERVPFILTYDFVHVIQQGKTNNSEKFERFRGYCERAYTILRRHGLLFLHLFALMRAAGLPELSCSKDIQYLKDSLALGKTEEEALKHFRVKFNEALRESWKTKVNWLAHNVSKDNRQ
experimental_protocol: Inhibitory activity to PI3K δ, PI 3-Kinase (human) HTRF Assay kit
Format: biochemical
particulars: 1 μM (Table 7); read-out: Inhibition rate % to PI3Kδ
observed_property: inhibition at 1 µM (%)

Please review the entries below; each comes with its answer.
COc1cccc(-c2ccnc3ccc(Nc4nc(NC5CC5)c5nc[nH]c5n4)cc23)c1; 16.7
c1cc(N2CCOCC2)c2cc(Nc3nc(NC4CC4)c4nc[nH]c4n3)ccc2n1; 31
c1ccc(-c2ccnc3ccc(Nc4nc(N5CCCC5)c5nc[nH]c5n4)cc23)cc1; 68
CC(C)Nc1nc(Nc2ccc3nccc(-c4ccccc4)c3c2)nc2[nH]cnc12; 75.7
c1cnc2ccc(Nc3nc(OC4CCC4)c4nc[nH]c4n3)cc2c1; 72.3

1: COC(=O)c1cccc(-c2ccnc3ccc(Nc4nc(NC5CC5)c5nc[nH]c5n4)cc23)c1
2: FC(F)(F)Cn1cnc2c(NC3CC3)nc(Nc3ccc4nccc(-c5ccccc5)c4c3)nc21
Task: 1 or 2 : whose inhibition at 1 µM is greater? Answer format: the label of the selected item.
Result: 2
